# ASSAY TARGET: Maternal embryonic leucine zipper kinase (Homo sapiens, UniProt Q14680)
# MEASUREMENT PROTOCOL: Inhibition of recombinant human N-terminal GST-tagged MELK (1 to 340 residues) expressed in baculovirus infected Sf21 insect cells using KKLNRTLSFAEPG as substrate in presence of [gamma-33P]-ATP or [gamma-32P]-ATP
ATTRIBUTE MEASURED: IC50 (nM)

>>> meas_value("Cc1cccc(Cn2nc(C)c3c(NC(=O)c4csc5c(N)ncnc45)cccc32)n1")
258

----------
Below, each entry is listed with its recorded GI50.
# System: NFS-60
# MEASUREMENT PROTOCOL: Growth inhibition of mouse NFS60 cells after 72 hrs by CellTiter96 AQueous one solution cell proliferation assay
# Type: functional
# CONDITION SUMMARY: NFS-60, 72 h
ATTRIBUTE MEASURED: GI50 (nM)

>>> meas_value("Nc1ncnc2c(C(=O)Nc3cccc4c3c(Br)nn4Cc3ccccn3)csc12")
2500
>>> meas_value("Cc1cccc(Cn2nc(C)c3c(NC(=O)c4csc5c(N)ncnc45)cccc32)n1")
80
>>> meas_value("Nc1ncnc2c(C(=O)Nc3cccc4c3c(Br)nn4Cc3cccc(Br)n3)csc12")
243
>>> meas_value("COc1ccc(COc2ccc(Cc3cnc(N)nc3N)cc2OC)cc1 [GW632580X]")
94
>>> meas_value("Nc1ncnc2c(C(=O)Nc3cccc4c3c(Br)nn4Cc3ccncc3)csc12")
135
>>> meas_value("CCn1nc(Cn2nc(Br)c3c(NC(=O)c4csc5c(N)ncnc45)cccc32)cc1C(C)C")
62
>>> meas_value("Nc1ncnc2c(C(=O)Nc3cccc4c3c(Br)nn4Cc3ccccc3)csc12")
1000
>>> meas_value("Nc1ncnc2c(C(=O)Nc3cccc4c3c(Br)nn4Cc3cccc(F)n3)csc12")
233

----------
# ASSAY TARGET: Cytochrome P450 2C19 (Homo sapiens, UniProt P33261)
# Sequence (P33261 whole entry): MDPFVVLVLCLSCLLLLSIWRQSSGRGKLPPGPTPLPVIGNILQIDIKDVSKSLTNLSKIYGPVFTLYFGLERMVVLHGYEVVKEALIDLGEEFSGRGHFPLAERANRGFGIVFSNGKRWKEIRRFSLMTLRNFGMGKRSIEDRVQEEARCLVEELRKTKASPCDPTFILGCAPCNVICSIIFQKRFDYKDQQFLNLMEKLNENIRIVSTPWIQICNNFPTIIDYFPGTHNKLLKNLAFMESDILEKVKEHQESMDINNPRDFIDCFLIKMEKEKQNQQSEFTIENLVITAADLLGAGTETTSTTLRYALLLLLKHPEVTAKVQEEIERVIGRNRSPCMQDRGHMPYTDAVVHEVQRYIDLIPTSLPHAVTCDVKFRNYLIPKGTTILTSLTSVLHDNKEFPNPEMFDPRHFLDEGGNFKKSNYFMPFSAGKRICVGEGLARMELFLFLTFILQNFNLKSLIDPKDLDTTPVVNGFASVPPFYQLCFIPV
ATTRIBUTE MEASURED: IC50 (nM)

>>> meas_value("Nc1ncnc2c(C(=O)Nc3cccc4c3c(Br)nn4Cc3cccnc3)csc12")
2020

----------
Below, each entry is listed with its recorded Vd.
# MEASUREMENT PROTOCOL: Volume of distribution in CD-1 mouse at 3 mg/kg, iv
# Type: ADME, organism-based
# CONDITION SUMMARY: in vivo
ATTRIBUTE MEASURED: Vd (L/kg)

>>> meas_value("Cc1cccc(Cn2nc(C)c3c(NC(=O)c4csc5c(N)ncnc45)cccc32)n1")
2
>>> meas_value("Cc1cccc(Cn2nc(Br)c3c(NC(=O)c4csc5c(N)ncnc45)cccc32)n1")
1.4

----------
# MEASUREMENT PROTOCOL: Oral bioavailability in CD-1 mouse at 10 mg/kg
# Format: ADME, organism-based
# CONDITION SUMMARY: in vivo
ATTRIBUTE MEASURED: bioavailability (%)

>>> meas_value("Cc1cccc(Cn2nc(Br)c3c(NC(=O)c4csc5c(N)ncnc45)cccc32)n1")
37
>>> meas_value("Cc1cccc(Cn2nc(C)c3c(NC(=O)c4csc5c(N)ncnc45)cccc32)n1")
36

----------
# ASSAY TARGET: UniProt:P11362
# Sequence (P11362 whole entry, the tested form may be a part): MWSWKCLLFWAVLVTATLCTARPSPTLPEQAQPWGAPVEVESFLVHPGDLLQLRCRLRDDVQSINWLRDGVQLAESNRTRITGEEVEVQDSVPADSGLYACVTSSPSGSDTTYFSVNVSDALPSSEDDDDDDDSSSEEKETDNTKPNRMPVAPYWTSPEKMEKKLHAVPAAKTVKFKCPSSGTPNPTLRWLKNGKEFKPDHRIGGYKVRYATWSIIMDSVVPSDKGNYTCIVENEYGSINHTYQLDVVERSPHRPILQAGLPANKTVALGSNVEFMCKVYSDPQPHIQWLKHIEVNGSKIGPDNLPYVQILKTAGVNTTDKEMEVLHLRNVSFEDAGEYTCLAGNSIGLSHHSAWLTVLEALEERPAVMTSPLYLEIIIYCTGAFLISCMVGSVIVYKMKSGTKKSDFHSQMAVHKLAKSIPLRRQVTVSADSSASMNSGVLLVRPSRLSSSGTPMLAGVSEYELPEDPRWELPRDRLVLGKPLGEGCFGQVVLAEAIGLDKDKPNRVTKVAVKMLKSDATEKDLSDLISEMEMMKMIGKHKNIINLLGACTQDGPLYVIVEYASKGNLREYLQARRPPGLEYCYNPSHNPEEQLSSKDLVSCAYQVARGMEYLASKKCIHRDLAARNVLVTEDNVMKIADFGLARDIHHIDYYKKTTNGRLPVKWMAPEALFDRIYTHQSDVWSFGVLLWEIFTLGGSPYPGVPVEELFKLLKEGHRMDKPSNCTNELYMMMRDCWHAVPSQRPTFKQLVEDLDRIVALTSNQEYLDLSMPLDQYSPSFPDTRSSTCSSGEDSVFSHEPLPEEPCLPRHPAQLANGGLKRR
# MEASUREMENT PROTOCOL: Inhibition of recombinant human N-terminal GST-tagged FGFR1 (456 to 765 residues) expressed in baculovirus infected Sf21 insect cells using IGF-IRtide (12-527) as substrate in presence of [gamma-33P]-ATP or [gamma-32P]-ATP
pIC50: −log10 of the molar value.
ATTRIBUTE MEASURED: pIC50

>>> meas_value("Cc1cccc(Cn2nc(C)c3c(NC(=O)c4csc5c(N)ncnc45)cccc32)n1")
6.84

----------
Below, each entry is listed with its recorded AUC(0-t) at 7 h.
# MEASUREMENT PROTOCOL: AUC (0 to 7 hrs) in CD-1 mouse at 10 mg/kg, po
# Assay type: ADME, organism-based
# Design: time < 7 hr, dose 10 mg/kg, route oral
# CONDITION SUMMARY: in vivo
ATTRIBUTE MEASURED: AUC(0-t) at 7 h

>>> meas_value("Cc1cccc(Cn2nc(C)c3c(NC(=O)c4csc5c(N)ncnc45)cccc32)n1")
"4040 ng·h/mL"
>>> meas_value("Cc1cccc(Cn2nc(Br)c3c(NC(=O)c4csc5c(N)ncnc45)cccc32)n1")
"6060 ng·h/mL"

----------
# ASSAY TARGET: Voltage-gated inwardly rectifying potassium channel KCNH2 (Homo sapiens, UniProt Q12809)
# Sequence (Q12809 whole entry): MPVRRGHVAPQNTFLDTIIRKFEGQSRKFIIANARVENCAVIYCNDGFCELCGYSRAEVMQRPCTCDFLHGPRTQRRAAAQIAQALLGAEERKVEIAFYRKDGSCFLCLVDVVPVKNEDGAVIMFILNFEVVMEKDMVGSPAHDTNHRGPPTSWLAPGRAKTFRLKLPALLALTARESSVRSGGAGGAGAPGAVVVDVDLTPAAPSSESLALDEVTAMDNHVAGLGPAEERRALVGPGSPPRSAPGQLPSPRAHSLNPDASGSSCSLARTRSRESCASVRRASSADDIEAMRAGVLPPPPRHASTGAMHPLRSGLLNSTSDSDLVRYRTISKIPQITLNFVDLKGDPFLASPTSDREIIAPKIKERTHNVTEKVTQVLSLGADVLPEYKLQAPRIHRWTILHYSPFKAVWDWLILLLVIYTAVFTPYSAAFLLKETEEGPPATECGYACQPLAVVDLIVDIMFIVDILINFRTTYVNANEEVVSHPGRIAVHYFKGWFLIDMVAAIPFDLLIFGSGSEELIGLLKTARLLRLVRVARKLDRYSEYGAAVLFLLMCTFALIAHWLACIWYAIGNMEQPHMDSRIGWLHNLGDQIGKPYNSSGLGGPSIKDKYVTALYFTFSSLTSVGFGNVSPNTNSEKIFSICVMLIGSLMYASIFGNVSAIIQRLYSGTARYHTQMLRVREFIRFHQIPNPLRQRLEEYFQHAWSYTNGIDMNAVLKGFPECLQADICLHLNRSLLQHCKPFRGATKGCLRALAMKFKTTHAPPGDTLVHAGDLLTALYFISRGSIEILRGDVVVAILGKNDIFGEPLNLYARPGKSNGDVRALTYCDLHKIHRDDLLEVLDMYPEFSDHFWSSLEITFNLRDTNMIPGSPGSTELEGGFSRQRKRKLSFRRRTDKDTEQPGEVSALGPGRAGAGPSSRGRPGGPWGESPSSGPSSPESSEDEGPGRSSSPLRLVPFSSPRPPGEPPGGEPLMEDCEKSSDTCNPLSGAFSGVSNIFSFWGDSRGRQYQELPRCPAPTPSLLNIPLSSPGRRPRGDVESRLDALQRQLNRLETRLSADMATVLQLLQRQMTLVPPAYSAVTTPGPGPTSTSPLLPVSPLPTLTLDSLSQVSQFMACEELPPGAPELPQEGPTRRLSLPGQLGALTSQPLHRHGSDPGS
# MEASUREMENT PROTOCOL: Displacement of Tracer Red from human ERG by fluorescence polarization assay
pIC50: −log10 of the molar value.
ATTRIBUTE MEASURED: pIC50

>>> meas_value("Cc1cccc(Cn2nc(C)c3c(NC(=O)c4csc5c(N)ncnc45)cccc32)n1")
"< 4.30"

----------
# ASSAY TARGET: RAF proto-oncogene serine/threonine-protein kinase (Homo sapiens, UniProt P04049, Y340D/Y341D)
# Sequence (P04049 whole entry Y340D/Y341D, the tested form may be a part): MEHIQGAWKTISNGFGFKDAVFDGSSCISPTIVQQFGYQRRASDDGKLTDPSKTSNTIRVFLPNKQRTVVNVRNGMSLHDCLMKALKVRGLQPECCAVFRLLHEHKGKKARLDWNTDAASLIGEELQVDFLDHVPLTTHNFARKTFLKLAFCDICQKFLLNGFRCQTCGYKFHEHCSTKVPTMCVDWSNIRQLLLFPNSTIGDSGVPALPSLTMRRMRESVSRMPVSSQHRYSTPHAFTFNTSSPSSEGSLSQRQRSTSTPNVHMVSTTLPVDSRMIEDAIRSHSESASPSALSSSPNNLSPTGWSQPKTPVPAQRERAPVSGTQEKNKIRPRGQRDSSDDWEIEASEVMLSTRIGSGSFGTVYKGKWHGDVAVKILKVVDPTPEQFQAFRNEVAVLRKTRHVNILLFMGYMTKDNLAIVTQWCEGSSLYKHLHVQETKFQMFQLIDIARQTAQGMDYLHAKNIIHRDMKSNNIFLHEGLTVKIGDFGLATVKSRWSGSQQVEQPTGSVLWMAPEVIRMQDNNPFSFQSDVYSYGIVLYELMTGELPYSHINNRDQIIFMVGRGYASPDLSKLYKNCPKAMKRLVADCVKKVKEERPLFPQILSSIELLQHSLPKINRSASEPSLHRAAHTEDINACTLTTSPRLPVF
# MEASUREMENT PROTOCOL: Inhibition of recombinant human N-terminal GST-tagged c-RAF Y340D/Y341D double mutant (306 to 648 residues) expressed in baculovirus infected Sf21 insect cells using MEK1(K97R) as substrate in presence of [gamma-33P]-ATP or [gamma-32P]-ATP
ATTRIBUTE MEASURED: IC50 (nM)

>>> meas_value("Cc1cccc(Cn2nc(C)c3c(NC(=O)c4csc5c(N)ncnc45)cccc32)n1")
80

----------
// Cytochrome P450 2D6 (Homo sapiens, UniProt P10635) IC50 records
ATTRIBUTE MEASURED: IC50

>>> meas_value("Nc1ncnc2c(C(=O)Nc3cccc4c3c(Br)nn4Cc3cccnc3)csc12")
"> 20 µM"
>>> meas_value("Cc1cccc(Cn2nc(C)c3c(NC(=O)c4csc5c(N)ncnc45)cccc32)n1")
"> 20 µM"

----------
# ASSAY TARGET: Cytochrome P450 3A4 (Homo sapiens, UniProt P08684)
# MEASUREMENT PROTOCOL: Inhibition of CYP3A4 in human liver microsomes by LC-MS/MS analysis
# Type: ADME
pIC50: −log10 of the molar value.
ATTRIBUTE MEASURED: pIC50

>>> meas_value("Cc1cccc(Cn2nc(C)c3c(NC(=O)c4csc5c(N)ncnc45)cccc32)n1")
"< 4.70"

----------
# Test system: NFS-60
# MEASUREMENT PROTOCOL: Growth inhibition of mouse NFS60 cells after 72 hrs by CellTiter96 AQueous one solution cell proliferation assay
# Format: functional
# CONDITION SUMMARY: NFS-60, 72 h
ATTRIBUTE MEASURED: GI50 (µM)

>>> meas_value("COc1cccc(Cn2nc(Br)c3c(NC(=O)c4csc5c(N)ncnc45)cccc32)n1")
0.034
>>> meas_value("COc1ccc(Cn2nc(Br)c3c(NC(=O)c4csc5c(N)ncnc45)cccc32)cc1")
2.39
>>> meas_value("C=Cc1nn(Cc2cccc(C)n2)c2cccc(NC(=O)c3csc4c(N)ncnc34)c12")
4.46

----------
Below, each entry is listed with its recorded Tmax.
# MEASUREMENT PROTOCOL: Tmax in CD-1 mouse at 10 mg/kg, po
# Type: ADME, organism-based
# CONDITION SUMMARY: in vivo
ATTRIBUTE MEASURED: Tmax (h)

>>> meas_value("Cc1cccc(Cn2nc(C)c3c(NC(=O)c4csc5c(N)ncnc45)cccc32)n1")
2
>>> meas_value("Cc1cccc(Cn2nc(Br)c3c(NC(=O)c4csc5c(N)ncnc45)cccc32)n1")
1

----------
Below, each entry is listed with its recorded half-life.
# MEASUREMENT PROTOCOL: Half life in CD-1 mouse at 3 mg/kg, iv
# Type: ADME, organism-based
# CONDITION SUMMARY: in vivo
ATTRIBUTE MEASURED: half-life

>>> meas_value("Cc1cccc(Cn2nc(C)c3c(NC(=O)c4csc5c(N)ncnc45)cccc32)n1")
"1.6 h"
>>> meas_value("Cc1cccc(Cn2nc(Br)c3c(NC(=O)c4csc5c(N)ncnc45)cccc32)n1")
"2.6 h"

----------
# ASSAY TARGET: Cytochrome P450 2C9 (Homo sapiens)
# Sequence (P11712 whole entry): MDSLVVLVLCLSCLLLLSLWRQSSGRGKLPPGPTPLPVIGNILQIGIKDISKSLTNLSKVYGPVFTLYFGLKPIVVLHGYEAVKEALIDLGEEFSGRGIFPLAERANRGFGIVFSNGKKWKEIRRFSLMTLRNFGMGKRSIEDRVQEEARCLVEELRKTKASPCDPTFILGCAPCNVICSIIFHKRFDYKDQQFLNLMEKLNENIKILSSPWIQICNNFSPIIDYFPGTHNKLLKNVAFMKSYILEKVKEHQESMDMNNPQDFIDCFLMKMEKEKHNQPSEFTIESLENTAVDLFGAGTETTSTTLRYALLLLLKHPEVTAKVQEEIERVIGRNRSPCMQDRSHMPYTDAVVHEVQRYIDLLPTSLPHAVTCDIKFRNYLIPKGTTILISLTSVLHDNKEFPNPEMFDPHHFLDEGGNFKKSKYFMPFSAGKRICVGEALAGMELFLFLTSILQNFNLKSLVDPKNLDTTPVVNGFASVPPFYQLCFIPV
ATTRIBUTE MEASURED: IC50 (nM)

>>> meas_value("Nc1ncnc2c(C(=O)Nc3cccc4c3c(Br)nn4Cc3cccnc3)csc12")
1380

----------
# ASSAY TARGET: Angiopoietin-1 receptor (Homo sapiens)
# Sequence (Q02763 whole entry): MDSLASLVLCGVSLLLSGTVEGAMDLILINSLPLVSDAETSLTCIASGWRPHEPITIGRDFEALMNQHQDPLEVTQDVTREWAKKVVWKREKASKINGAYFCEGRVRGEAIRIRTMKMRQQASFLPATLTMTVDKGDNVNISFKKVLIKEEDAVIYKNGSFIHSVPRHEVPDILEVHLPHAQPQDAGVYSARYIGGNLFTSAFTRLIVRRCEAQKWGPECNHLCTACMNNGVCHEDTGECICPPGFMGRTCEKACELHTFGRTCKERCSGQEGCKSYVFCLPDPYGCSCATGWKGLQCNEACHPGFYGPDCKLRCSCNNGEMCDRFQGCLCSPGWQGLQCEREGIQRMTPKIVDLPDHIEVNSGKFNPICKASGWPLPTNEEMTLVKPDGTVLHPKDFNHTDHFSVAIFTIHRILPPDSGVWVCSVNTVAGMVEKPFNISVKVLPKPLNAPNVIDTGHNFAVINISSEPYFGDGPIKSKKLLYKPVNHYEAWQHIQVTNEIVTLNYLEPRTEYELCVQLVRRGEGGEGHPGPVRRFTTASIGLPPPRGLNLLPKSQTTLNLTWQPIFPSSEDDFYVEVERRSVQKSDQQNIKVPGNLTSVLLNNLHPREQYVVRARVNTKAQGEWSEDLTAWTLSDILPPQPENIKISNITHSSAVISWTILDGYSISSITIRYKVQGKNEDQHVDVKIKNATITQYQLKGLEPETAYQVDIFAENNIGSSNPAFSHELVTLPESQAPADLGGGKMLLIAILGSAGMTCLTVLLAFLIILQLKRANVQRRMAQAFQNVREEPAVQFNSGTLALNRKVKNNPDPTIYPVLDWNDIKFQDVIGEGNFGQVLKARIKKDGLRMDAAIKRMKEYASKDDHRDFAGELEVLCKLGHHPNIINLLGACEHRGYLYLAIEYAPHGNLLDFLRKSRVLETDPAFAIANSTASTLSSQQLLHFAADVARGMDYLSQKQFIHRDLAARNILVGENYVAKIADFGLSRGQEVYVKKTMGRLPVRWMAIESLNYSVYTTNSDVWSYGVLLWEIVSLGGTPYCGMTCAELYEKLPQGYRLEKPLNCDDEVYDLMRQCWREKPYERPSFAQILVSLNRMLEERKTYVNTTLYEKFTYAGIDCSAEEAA
# MEASUREMENT PROTOCOL: Inhibition of recombinant human N-terminal His6-tagged Tie2 (771 to end residues) expressed in baculovirus infected Sf21 insect cells using Poly (Glu4-Tyr) (4:1) as substrate in presence of [gamma-33P]-ATP or [gamma-32P]-ATP
pIC50: −log10 of the molar value.
ATTRIBUTE MEASURED: pIC50

>>> meas_value("Cc1cccc(Cn2nc(C)c3c(NC(=O)c4csc5c(N)ncnc45)cccc32)n1")
6.68
